studySystem: T1, Human CD3eg linker (human)
T1 construct: Single-chain construct; also called recombinant human CD3
T1 chain: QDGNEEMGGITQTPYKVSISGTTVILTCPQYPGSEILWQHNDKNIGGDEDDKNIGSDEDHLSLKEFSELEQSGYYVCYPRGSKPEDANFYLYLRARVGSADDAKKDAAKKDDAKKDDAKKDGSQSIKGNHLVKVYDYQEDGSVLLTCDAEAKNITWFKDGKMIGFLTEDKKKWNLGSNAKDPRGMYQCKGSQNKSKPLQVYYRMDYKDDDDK
assayRemarks: SPR; fold vs parent H183/L072
measuredEndpoint: fold change of affinity (fold)
Respond numerically; units are fold and should not be typed.

Would you please look over these solved cases?
Request: Field request: fold change of affinity | item: H183/L072 VL K50R (antibody, name in Kabat numbering, V domains shown) VH: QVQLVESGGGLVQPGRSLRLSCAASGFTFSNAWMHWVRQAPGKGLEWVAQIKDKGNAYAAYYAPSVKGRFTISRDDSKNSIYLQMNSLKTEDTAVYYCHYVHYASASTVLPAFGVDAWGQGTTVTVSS VL: DIVMTQSPLSLPVTPGEPASISCQASQELVHMNRNTYLHWYQQKPGQAPRLLIYRVSNRFPGVPDRFSGSGSGTDFTLKISRVEAEDVGVYYCAQGTSVPFTFGQGTKLEIK
Result: 0

Request: Need fold change of affinity of H183/L072 VL A89E (antibody, name in Kabat numbering, V domains shown) VH: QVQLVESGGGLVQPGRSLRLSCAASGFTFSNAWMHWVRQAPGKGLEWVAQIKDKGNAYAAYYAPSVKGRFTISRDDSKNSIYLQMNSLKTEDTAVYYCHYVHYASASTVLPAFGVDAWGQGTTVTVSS VL: DIVMTQSPLSLPVTPGEPASISCQASQELVHMNRNTYLHWYQQKPGQAPRLLIYKVSNRFPGVPDRFSGSGSGTDFTLKISRVEAEDVGVYYCEQGTSVPFTFGQGTKLEIK , thanks.
Result: 0

---
Request: Quick one: fold change of affinity of H183/L072 VL V94M (antibody, name in Kabat numbering, V domains shown) VH: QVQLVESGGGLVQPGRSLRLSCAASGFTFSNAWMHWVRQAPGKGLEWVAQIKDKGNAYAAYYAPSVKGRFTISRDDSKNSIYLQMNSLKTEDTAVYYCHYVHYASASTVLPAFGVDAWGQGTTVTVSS VL: DIVMTQSPLSLPVTPGEPASISCQASQELVHMNRNTYLHWYQQKPGQAPRLLIYKVSNRFPGVPDRFSGSGSGTDFTLKISRVEAEDVGVYYCAQGTSMPFTFGQGTKLEIK ?
Result: 0.8
